Modal MIC values, listed per item
Test system: E. cloacae NICD 16103 (C)
Settings: E. cloacae NICD 16103 clinical isolate; cation-adjusted MHB, ~5 x 10^5 CFU/mL, 37°C 20 h, OD600; n = 6
Ends that are not written are not given here.
Your answer is read as µg/mL, so omit the unit and give the number.

• GRVWRWIKSTAKKLWN-NH2 [Opis16aNterKR] = 8

Task: Using the record for GKVWKWIKSTAKKLWN-NH2 [Opis16aD5K] , report its Modal MIC.
Result: 8

* * *

Test system: A. baumannii NICD 15283 (C)
Conditions: A. baumannii NICD 15283 clinical isolate; cation-adjusted MHB, ~5 x 10^5 CFU/mL, 37°C 20 h, OD600; n = 6
Ends that are not written are not given here.
property.measured: Modal MIC (µg/mL)
Numeric answer only, unit µg/mL assumed.

- GRVWRWIKSTAKKLWN-NH2 [Opis16aNterKR]: 8

Task: Modal MIC lookup needed for GRVWRWIRSTARRLWN-NH2 [Opis16aKR] , thanks.
Result: 8

Task: I'd like to know its Modal MIC. The substance in question is GKVWKWIKSTAKKLWN-NH2 [Opis16aD5K]
Result: 8

Task: Using the record for GKVWKWIKSTARRLWN-NH2 [Opis16aCterKR] , report its Modal MIC.
Result: 8
